Each recorded value in this set is attributed to ChEMBL document CHEMBL1132834.

The compounds listed here are annotated with their CC50.
experiment: Reduction of viable cell numbers by 50% was evaluated by HepAD38 cellular assay; type: ADME, cell-based; conditions: human, HepAD38 cells; read-out: TC50 (the source's name)
Observation type: CC50

INSERT INTO measurements (molecule, observation_type, value_measured) VALUES
  ('O=C(N/C(C(=O)N1CCCCC1)=C(/Cl)c1ccccc1F)c1ccccc1', 'CC50', '31 µM'),
  ('O=C(N/C(C(=O)N1CCCCC1)=C(/Br)c1ccccc1)c1ccc(C(F)(F)F)cc1', 'CC50', '> 62 µM'),
  ('Cc1ccc(C(=O)N/C(C(=O)N2CCCCC2)=C(/Br)c2ccccc2)cc1', 'CC50', '> 70 µM');
